EXPERIMENTAL_TARGET: T1, human IL-2Rβ (human, UniProt P14784 27-240, limits assumed)
T1 construct: Recombinant protein, coated (ELISA) or immobilised on CM5 (SPR); also called hu IL-2R; interleukin 2 receptor β-chain
T1 sequence: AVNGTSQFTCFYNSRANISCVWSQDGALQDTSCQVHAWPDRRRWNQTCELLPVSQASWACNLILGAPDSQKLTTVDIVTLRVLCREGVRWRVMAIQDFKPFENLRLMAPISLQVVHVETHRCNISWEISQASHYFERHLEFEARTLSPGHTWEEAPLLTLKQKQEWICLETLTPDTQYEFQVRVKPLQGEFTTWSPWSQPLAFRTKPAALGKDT
ASSAY_OVERVIEW: P.E. binding ELISA on coated protein
I'd be grateful if you could share measured P.E. binding ELISA OD for these entries.
Report the figure in OD450 nm without appending any unit label.

# binder FJ1427_P035MP03C07 (VHH, soluble VHH in periplasmic extract; also called clone nr) VHH: QVQLVESGGGLVQAGDSLRLSCAASGRSLSTDCMGWVRQAPGKEREFVAGITWGTGSTLYADSVEGRFTISKDNAKNTGYLQMSSLKPEDTAVYYCAVDRYCYRGTVYRDWGRGTQVTVSS ; its P.E. binding ELISA OD = 0.372

# binder FJ1427 P035MP03D09 (VHH, soluble VHH in periplasmic extract; also called clone nr; 260) VHH: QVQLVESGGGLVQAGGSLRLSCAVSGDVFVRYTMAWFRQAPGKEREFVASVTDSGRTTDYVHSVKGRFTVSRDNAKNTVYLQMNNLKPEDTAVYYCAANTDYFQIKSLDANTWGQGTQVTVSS ; its P.E. binding ELISA OD = 0.313

# binder FJ1427 P035MP03B04 (VHH, soluble VHH in periplasmic extract; also called clone nr) VHH: QVQLVESGGGLVQTGGSLRLSCAASGSQFINDVMGWYRQVPGKQRELVADMDDTGSTKYADSVKGRFTILRDSVKNTAYLQMSNLKPEDTGVYYCKAGLWIKGRHSDYWGQGTQVTVSS ; its P.E. binding ELISA OD = 0.186

# binder FJ1427_P035MP03B05 (VHH, soluble VHH in periplasmic extract; also called clone nr) VHH: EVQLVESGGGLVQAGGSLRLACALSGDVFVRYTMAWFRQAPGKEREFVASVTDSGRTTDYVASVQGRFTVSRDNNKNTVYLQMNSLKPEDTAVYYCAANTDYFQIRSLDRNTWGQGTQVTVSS ; its P.E. binding ELISA OD = 0.401
